// provenance: patent US20220281976A1

Kindly state Percent CD33 Surface Expression, DC % CD33 for each of the entries shown.
# measurement target: human CD33 (human, UniProt P20138 18-364)
# Sequence (P20138 18-364): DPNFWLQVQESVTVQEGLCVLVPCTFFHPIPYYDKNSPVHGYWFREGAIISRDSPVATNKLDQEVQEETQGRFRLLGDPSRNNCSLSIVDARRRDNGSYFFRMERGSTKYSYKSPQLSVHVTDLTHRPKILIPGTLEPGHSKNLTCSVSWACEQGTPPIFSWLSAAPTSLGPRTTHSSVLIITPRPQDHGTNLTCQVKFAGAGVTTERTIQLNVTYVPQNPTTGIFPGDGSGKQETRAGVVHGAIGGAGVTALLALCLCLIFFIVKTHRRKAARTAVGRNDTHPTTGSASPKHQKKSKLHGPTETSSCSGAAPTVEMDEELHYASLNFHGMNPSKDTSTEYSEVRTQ
# run description: cell-based or functional assay
Numbers only, in %.

# count of solved cases: 5
binder	unit label	recorded value
C-9 (antibody, V domains shown, human IgG1) VH: QLQLQESGPGLVKPSETLSLTCTVSGGSISSSSYYWGWIRQPPGKGLEWIGSIYYSGSTYYNPSLKSRVTISVDTSKNQFSLKLSSVTAADTAVYYCARESGFAGLDPWGQGTLVTVSS VL: EIVLTQSPGTLSLSPGERATLSCRASQSVSSSFLAWYQQKPGQAPRLLIYGASSRATGIPDRFSGSGSGTDFTLTISRLEPEDFAVYYCQQSEDWPTFGGGTKVEIK	%	26
C-65 (antibody, V domains shown, human IgG1) VH: QVQLVQSGAEVKKPGASVKVSCKASGYTFTSYYMHWVRQAPGQGLEWMGVINPSGGSTSYAQKFQGRVTMTRDTSTSTVYMELSSLRSEDTAVYYCARESQYYDVHGMDVWGQGTTVTVSS VL: DIQMTQSPSSLSASVGDRVTITCRASQSISSYLNWYQQKPGKAPKLLIYAASSLQSGVPSRFSGSGSGTDFTLTISSLQPEDFATYYCQQQYTLPPTFGGGTKVEIK	%	26.9
C-19 (antibody, V domains shown, human IgG1) VH: QLQLQESGPGLVKPSETLSLTCTVSGGSISSSSYAWGWIRQPPGKGLEWIGSIYYSGSTYYNPSLKSRVTISVDTSKNQFSLKLSSVTAADTAVYYCARVGYTRPYGMDVWGQGTTVTVSS VL: DIQMTQSPSSVSASVGDRVTITCRASQGISSWLAWYQQKPGKAPKLLIYAASSLQSGVPSRFSGSGSGTDFTLTISSLQPEDFATYYCQQINAHPTFGGGTKVEIK	%	11.6
C-39 (antibody, V domains shown, human IgG1) VH: QLQLQESGPGLVKPSETLSLTCTVSGGSISSSSYYWGWIRQPPGKGLEWIGSIYYSGSTYYNPSLKSRVTISVDTSKNQFSLKLSSVTAADTAVYYCAREGVRGMDVWGQGTTVTVSS VL: EIVLTQSPGTLSLSPGERATLSCRASQSVSSSYLAWYQQKPGQAPRLLIYGASSRATGIPDRFSGSGSGTDFTLTISRLEPEDFAVYYCQQFAFLPPTFGGGTKVEIK	%	22.8
C-42 (antibody, V domains shown, human IgG1) VH: QLQLQESGPGLVKPSETLSLTCTVSGGSISSSSYYWGWIRQPPGKGLEWIGSIYYSGSTYYNPSLKSRVTISVDTSKNQFSLKLSSVTAADTAVYYCAREPIYRRGMDVWGQGTTVTVSS VL: EIVLTQSPATLSLSPGERATLSCRASQSVSSYLAWYQQKPGQAPRLLIYDASNRATGIPARFSGSGSGTDFTLTISSLEPEDFAVYYCQQFSNYPTFGGGTKVEIK	%	27.8

Here are 3 binders. What values of Percent CD33 Surface Expression, DC % CD33 were reported for them?
1. C-60 (antibody, V domains shown, human IgG1) VH: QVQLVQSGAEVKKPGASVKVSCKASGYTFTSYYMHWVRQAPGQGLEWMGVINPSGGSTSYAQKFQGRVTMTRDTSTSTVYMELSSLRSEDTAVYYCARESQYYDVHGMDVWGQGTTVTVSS VL: DIQLTQSPSSLSASVGDRVTITCRASQSISSYLNWYQQKPGKAPKLLIYAASSLQSGVPSRFSGSGSGTDFTLTISSLQPEDFATYYCQQSVHVPITFGGGTKVEIK
2. C-13 (antibody, V domains shown, human IgG1) VH: EVQLVESGGGLVQPGGSLRLSCAASGFTFSSYWMSWVRQAPGKGLEWVANIKSDGSEKYYVDSVKGRFTISRDNAKNSLYLQMNSLRAEDTAVYYCARGPSYLASGAFDLWGRGTLVTVSS VL: EIVLTQSPATLSLSPGERATLSCRASQSVSSYLAWYQQKPGQAPRLLIYDASNRATGIPARFSGSGSGTDFTLTISSLEPEDFAVYYCQQAYVVPPRTFGGGTKVEIK
3. C-73 (antibody, V domains shown, human IgG1) VH: QVQLVESGGGVVQPGRSLRLSCAASGFTFSSYGMHWVRQAPGKGLEWVAVIWYDGSNKYYADSVKGRFTISRDNSKNTLYLQMNSLRAEDTAVYYCARGTNAYGTPRDFDLWGRGTLVTVSS VL: DIQMTQSPSSLSASVGDRVTITCRASQSISSYLNWYQQKPGKAPKLLIYAASSLQSGVPSRFSGSGSGTDFTLTISSLQPEDFATYYCQQLSDTPITFGGGTKVEIK

Response:
1: 26.8; 2: 21.8; 3: 22.9

Below are 2 binders. Give each one its Percent CD33 Surface Expression, DC % CD33.
1. C-44 (antibody, V domains shown, human IgG1) VH: QLQLQESGPGLVKPSETLSLTCTVSGGSISSSSYAWGWIRQPPGKGLEWIGSIYYSGSTYYNPSLKSRVTISVDTSKNQFSLKLSSVTAADTAVYYCAREGYVAAYGMDVWGQGTTVTVSS VL: DIQMTQSPSSLSASVGDRVTITCRASQSISSYLNWYQQKPGKAPKLLIYAASSLQSGVPSRFSGSGSGTDFTLTISSLQPEDFATYYCQQAYYPPWTFGGGTKVEIK
2. C-26 (antibody, V domains shown, human IgG1) VH: QLQLQESGPGLVKPSETLSLTCTVSGGSISSNSYYWGWIRQPPGKGLEWIGSIYYSGSTYYNPSLKSRVTISVDTSKNQFSLKLSSVTAADTAVYYCARSPVYYDSSGYFQYYGMDVWGQGTTVTVSS VL: EIVLTQSPATLSLSPGERATLSCRASQSVSSYLAWYQQKPGQAPRLLIYDASKRATGIPARFSGSGSGTDFTLTISSLEPEDFAVYYCQQSIVWPPFTFGGGTKVEIK

Response:
1. 14.7
2. 18.8
